Test: probe aEGFR binding to arrayed compounds – biochemical, biotinylated probe, 635/667 nm fluorescence, primary screen (AID 1097);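 note: probe is a biotinylated anti-EGFR antibody binding compounds printed on slides; score combines fluorescence near 667 nm and signal to noise of each spot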
Conditions: small-molecule microarray, higher = more signal
Recorded composite z-score, one value per entry.
Respond with the number and no other words.

Please review the following examples before continuing.
{"columns": ["COMPOUND", "VALUE"],
 "data": [
  ["C=CCC(OC(C)=O)[C@@H]1[C@@H](N(Cc2ccc(-c3ccccc3)cc2)C(=O)c2ccc(-c3ccccc3)cc2)c2cc(OCCCO)ccc2N1C(=O)c1ccc2ccccc2c1 (some centres undefined)", -0.0531],
  ["COC(=O)[C@@]1(Cc2ccc(F)cc2)[C@H]2c3cc(C(=O)N(C)C)n(CCc4ccc(OC)c(Br)c4)c3C[C@H]2CN1C(=O)c1ccccc1", 0.557],
  ["C=C[C@@H](OC)[C@H](OC(=O)Nc1ccc(OC)cc1)c1ccc(O)c(F)c1", -0.199],
  ["[N-]=[N+]=Nc1ccccc1C[C@@]1(C(=O)N2CCOCC2)N=C(c2ccc(OCCCO)cc2)O[C@@H]1c1ccccc1", 0.778],
  ["[N-]=[N+]=NCc1ccccc1[C@H]1OC(c2ccc(OCCCO)cc2)=N[C@@]1(Cc1ccccc1N=[N+]=[N-])C(=O)NCC(O)CO (some centres undefined)", 0.0201]
]}

Exercise: For C=C(/C(=C/C[C@H](OC(C)=O)c1ccc(CO)o1)c1cnc2ccccc2c1)C(C)C , what is its reported composite z-score?
Key: -0.0172

Exercise: Let us now turn to CCOC(=O)C[C@H]1[C@H](OC(=O)c2ccc(C(=O)c3ccccc3)cc2)[C@@H](NC(=O)C2CCCCC2)c2cc(OCCCO)ccc2N1C(=O)c1ccc2ccccc2n1
Key: 0.0213

Exercise: Let us now turn to C=CCOC(=O)[C@@]1(Cc2ccccc2)C[C@H]2CO[C@H](c3ccc(OC)cc3)N2C1=O
Key: -0.15

Exercise: Let us now turn to CC(C)NC(=O)[C@@]1(C)c2ccccc2C(=O)N(Cc2ccc(OC(F)(F)F)cc2)[C@H]1c1ccc(CO)cc1
Key: -0.349

Exercise: Let us now turn to COC(=O)C(CC#Cc1ccc2c(c1)[C@]1(C(=O)N2)[C@H](c2ccc(O)cc2)N2[C@H](c3ccccc3)[C@H](c3ccccc3)OC(=O)[C@H]2[C@@H]1C(=O)NC[C@H](O)c1ccccc1)C(=O)OC
Key: 0.128

Exercise: Let us now turn to CCCC=C(CCC)[C@@H](NP(=O)(c1ccccc1)c1ccccc1)c1ccc(-c2ccccc2)cc1
Key: 0.0825

Exercise: Let us now turn to COc1ccc([Si](C)(C)[C@@H]2[C@@H](CCO)O[C@]3(C(=O)N(Cc4ccccc4)c4ccc(N5C(=O)c6cccc7cccc5c67)cc43)[C@H]2C)cc1
Key: -0.177

Exercise: Let us now turn to CCOC(=O)C[C@H]1[C@H](OC(=O)Cc2ccc3c(c2)OCO3)[C@@H](NC(=O)C2CCCCC2)c2cc(OCCCO)ccc2N1C(=O)c1ccccc1
Key: -0.0452
